Quick reference for viability, T/C among some compounds
tested on: 519858-162-T-J1-PDC complex spheroid viability; experiment: Anticancer human tumor 519858-162-T-J1-PDC patient-derived colon adenocarcinoma cell line growth inhibition [GQUAD]; conditions: second compound 10 µM; first compound 0.316 µM; active compounds read low
endpoint name: viability, T/C (%)

[[record]]
compound = "COc1ncnc(C2CC2)c1-c1ncc2cnn(Cc3ccc(-c4nc(C(F)(F)F)cn4C(C)C)cc3)c2n1 + Cc1cnc(CNC(=O)c2c(=O)c3ccc(N4CCCN(C)CC4)nc3n3c2sc2ccccc23)cn1"
unit_of_measurement = "%"
reported_measurement = 48.5

[[record]]
compound = "CC(=O)O[C@H]1C(=O)[C@@]2(C)[C@H]([C@H](OC(=O)c3ccccc3)[C@]3(O)C[C@H](OC(=O)[C@H](O)[C@@H](NC(=O)c4ccccc4)c4ccccc4)C(C)=C1C3(C)C)[C@]1(OC(C)=O)CO[C@@H]1C[C@@H]2O + Cc1[nH]c2ccc(F)cc2c1-c1nc2c3cccnc3c3ncccc3c2[nH]1"
unit_of_measurement = "%"
reported_measurement = 68.1

[[record]]
compound = "Cc1cccc(N(C)C(=O)C2C(O)CCN2c2nc(C)cc(C(F)(F)F)c2C#N)c1 (stereo not drawn) + CN(C)c1ccc(Nc2c3ccc(NC(=O)CCN4CCCC4)cc3nc3cc(NC(=O)CCN4CCCC4)ccc23)cc1"
unit_of_measurement = "%"
reported_measurement = 57.9


----------
test system: 519858-162-T-J1-PDC complex spheroid viability; test: Anticancer human tumor 519858-162-T-J1-PDC cell line growth inhibition [GQUAD]; details: second compound 3.16 µM; first compound 0.1 µM; active compounds read low;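 also: spheroids exposed to compounds for 7 days; 100% = DMSO vehicle control viability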
endpoint name: viability, T/C (%)

[[record]]
molecule = "CC(C)(O)C1CCC(Nc2ccc3ncc(-c4cccc(C(F)(F)F)c4)n3n2)CC1 (stereo unspecified) + Cc1[nH]c2ccc(F)cc2c1-c1nc2c3cccnc3c3ncccc3c2[nH]1"
endpoint_name = "viability, T/C"
reported_measurement = 84

[[record]]
molecule = "CC(C)n1c(=O)n(C)c2cnc3cc(F)c(-c4ccc(OCCCN5CCCCC5)nc4)cc3c21 + Cc1cnc(CNC(=O)c2c(=O)c3ccc(N4CCCN(C)CC4)nc3n3c2sc2ccccc23)cn1"
endpoint_name = "viability, T/C"
reported_measurement = 25.4

[[record]]
molecule = "COc1ncnc(C2CC2)c1-c1ncc2cnn(Cc3ccc(-c4nc(C(F)(F)F)cn4C(C)C)cc3)c2n1 + CN(C)c1ccc(Nc2c3ccc(NC(=O)CCN4CCCC4)cc3nc3cc(NC(=O)CCN4CCCC4)ccc23)cc1"
endpoint_name = "viability, T/C"
reported_measurement = 79.7

[[record]]
molecule = "CC1COCCN1c1cc(C2(S(C)(=N)=O)CC2)nc(-c2ccnc3[nH]ccc23)n1 (stereo unspecified) + Cc1[nH]c2ccc(F)cc2c1-c1nc2c3cccnc3c3ncccc3c2[nH]1"
endpoint_name = "viability, T/C"
reported_measurement = 79.5

[[record]]
molecule = "O=C(NO)c1cnc(N2CCN(S(=O)(=O)c3ccc4ccccc4c3)CC2)nc1 + Cc1[nH]c2ccc(F)cc2c1-c1nc2c3cccnc3c3ncccc3c2[nH]1"
endpoint_name = "viability, T/C"
reported_measurement = 87.8

[[record]]
molecule = "COc1ccc([C@@H](O)c2cc(-c3ncnc4cc(N5CCOCC5)ccc34)c(F)cc2Cl)nn1 + CN(C)c1ccc(Nc2c3ccc(NC(=O)CCN4CCCC4)cc3nc3cc(NC(=O)CCN4CCCC4)ccc23)cc1"
endpoint_name = "viability, T/C"
reported_measurement = 65.1

[[record]]
molecule = "COc1cccc2c1C(=O)c1c(O)c3c(c(O)c1C2=O)CC(O)(C(=O)CO)CC3OC1CC(N)C(O)C(C)O1 (stereo unspecified) + Cc1[nH]c2ccc(F)cc2c1-c1nc2c3cccnc3c3ncccc3c2[nH]1"
endpoint_name = "viability, T/C"
reported_measurement = 72.7

[[record]]
molecule = "CC1COCCN1c1cc(-c2ccnn2C)c2ccnc(-c3ccn[nH]3)c2n1 (stereo unspecified) + CN(C)c1ccc(Nc2c3ccc(NC(=O)CCN4CCCC4)cc3nc3cc(NC(=O)CCN4CCCC4)ccc23)cc1"
endpoint_name = "viability, T/C"
reported_measurement = 83.9

[[record]]
molecule = "O=C(NO)c1cnc(N2CCN(S(=O)(=O)c3ccc4ccccc4c3)CC2)nc1 + Cc1cnc(CNC(=O)c2c(=O)c3ccc(N4CCCN(C)CC4)nc3n3c2sc2ccccc23)cn1"
endpoint_name = "viability, T/C"
reported_measurement = 45.7

[[record]]
molecule = "COc1cccc2c1C(=O)c1c(O)c3c(c(O)c1C2=O)CC(O)(C(=O)CO)CC3OC1CC(N)C(O)C(C)O1 (stereo unspecified) + CN(C)c1ccc(Nc2c3ccc(NC(=O)CCN4CCCC4)cc3nc3cc(NC(=O)CCN4CCCC4)ccc23)cc1"
endpoint_name = "viability, T/C"
reported_measurement = 60.6

[[record]]
molecule = "C#Cc1c(F)ccc2cc(O)cc(-c3ncc4c(N5CC6CCC(C5)N6)nc(OCC56CCCN5CC(F)C6)nc4c3F)c12 (stereo unspecified) + CN(C)c1ccc(Nc2c3ccc(NC(=O)CCN4CCCC4)cc3nc3cc(NC(=O)CCN4CCCC4)ccc23)cc1"
endpoint_name = "viability, T/C"
reported_measurement = 85.5


----------
system: 519858-162-T-J1-PDC complex spheroid viability; test: Anticancer human tumor 519858-162-T-J1-PDC cell line growth inhibition [GQUAD]; details: second compound 0.316 µM; first compound 10 µM; active means viability on the fitted dose curve at most 10% of control; inactive means the rest;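 also: spheroids exposed to compounds for 7 days; 100% = DMSO vehicle control viability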
Possible outcomes: 1 (yes) for active, 0 (no) for inactive

[[record]]
compound = "C=CCn1c(=O)c2cnc(Nc3ccc(N4CCN(C)CC4)cc3)nc2n1-c1cccc(C(C)(C)O)n1 + CN(C)c1ccc(Nc2c3ccc(NC(=O)CCN4CCCC4)cc3nc3cc(NC(=O)CCN4CCCC4)ccc23)cc1"
assigned_class = "0 (no)"

[[record]]
compound = "CC1COCCN1c1cc(C2(O)CC3CCC(C2)O3)c2cnn(-c3ccn[nH]3)c2n1 (stereo not given) + CN(C)c1ccc(Nc2c3ccc(NC(=O)CCN4CCCC4)cc3nc3cc(NC(=O)CCN4CCCC4)ccc23)cc1"
assigned_class = "0 (no)"

[[record]]
compound = "COc1ncnc(C2CC2)c1-c1ncc2cnn(Cc3ccc(-c4nc(C(F)(F)F)cn4C(C)C)cc3)c2n1 + Cc1cnc(CNC(=O)c2c(=O)c3ccc(N4CCCN(C)CC4)nc3n3c2sc2ccccc23)cn1"
assigned_class = "0 (no)"

[[record]]
compound = "COc1cccc2c1C(=O)c1c(O)c3c(c(O)c1C2=O)CC(O)(C(=O)CO)CC3OC1CC(N)C(O)C(C)O1 (stereo not given) + CN(C)c1ccc(Nc2c3ccc(NC(=O)CCN4CCCC4)cc3nc3cc(NC(=O)CCN4CCCC4)ccc23)cc1"
assigned_class = "0 (no)"

[[record]]
compound = "CC(C)n1c(=O)n(C)c2cnc3cc(F)c(-c4ccc(OCCCN5CCCCC5)nc4)cc3c21 + Cc1[nH]c2ccc(F)cc2c1-c1nc2c3cccnc3c3ncccc3c2[nH]1"
assigned_class = "0 (no)"

[[record]]
compound = "O=C(NO)c1cnc(N2CCN(S(=O)(=O)c3ccc4ccccc4c3)CC2)nc1 + Cc1[nH]c2ccc(F)cc2c1-c1nc2c3cccnc3c3ncccc3c2[nH]1"
assigned_class = "1 (yes)"

[[record]]
compound = "Cc1cccc(N(C)C(=O)C2C(O)CCN2c2nc(C)cc(C(F)(F)F)c2C#N)c1 (stereo not given) + Cc1cnc(CNC(=O)c2c(=O)c3ccc(N4CCCN(C)CC4)nc3n3c2sc2ccccc23)cn1"
assigned_class = "0 (no)"

[[record]]
compound = "CC1COCCN1c1cc(-c2ccnn2C)c2ccnc(-c3ccn[nH]3)c2n1 (stereo not given) + CN(C)c1ccc(Nc2c3ccc(NC(=O)CCN4CCCC4)cc3nc3cc(NC(=O)CCN4CCCC4)ccc23)cc1"
assigned_class = "0 (no)"

[[record]]
compound = "COc1cccc2c1C(=O)c1c(O)c3c(c(O)c1C2=O)CC(O)(C(=O)CO)CC3OC1CC(N)C(O)C(C)O1 (stereo not given) + Cc1[nH]c2ccc(F)cc2c1-c1nc2c3cccnc3c3ncccc3c2[nH]1"
assigned_class = "0 (no)"

[[record]]
compound = "CC(=O)O[C@H]1C(=O)[C@@]2(C)[C@H]([C@H](OC(=O)c3ccccc3)[C@]3(O)C[C@H](OC(=O)[C@H](O)[C@@H](NC(=O)c4ccccc4)c4ccccc4)C(C)=C1C3(C)C)[C@]1(OC(C)=O)CO[C@@H]1C[C@@H]2O + Cc1cnc(CNC(=O)c2c(=O)c3ccc(N4CCCN(C)CC4)nc3n3c2sc2ccccc23)cn1"
assigned_class = "0 (no)"


----------
Quick reference for viability, T/C among some compounds
tested on: 519858-162-T-J1-PDC complex spheroid viability; assay: Anticancer human tumor 519858-162-T-J1-PDC cell line growth inhibition [GQUAD]; settings: second compound 10 µM; first compound 0.316 µM; active compounds read low;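 also: spheroids exposed to compounds for 7 days; 100% = DMSO vehicle control viability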
endpoint name: viability, T/C (%)

[[record]]
compound = "Cn1ncnc1[C@H]1c2n[nH]c(=O)c3cc(F)cc(c23)N[C@@H]1c1ccc(F)cc1 + CN(C)c1ccc(Nc2c3ccc(NC(=O)CCN4CCCC4)cc3nc3cc(NC(=O)CCN4CCCC4)ccc23)cc1"
measured_target = "519858-162-T-J1-PDC complex spheroid viability"
unit_of_measurement = "%"
reported_measurement = 65.7

[[record]]
compound = "O=C(c1cc(Cc2n[nH]c(=O)c3ccccc23)ccc1F)N1CCN(C(=O)C2CC2)CC1 + Cc1[nH]c2ccc(F)cc2c1-c1nc2c3cccnc3c3ncccc3c2[nH]1"
measured_target = "519858-162-T-J1-PDC complex spheroid viability"
unit_of_measurement = "%"
reported_measurement = 52.6

[[record]]
compound = "COc1cc(C2c3cc4c(cc3C(OC3OC5COC(C)OC5C(O)C3O)C3COC(=O)C23)OCO4)cc(OC)c1O (stereo unspecified) + CN(C)c1ccc(Nc2c3ccc(NC(=O)CCN4CCCC4)cc3nc3cc(NC(=O)CCN4CCCC4)ccc23)cc1"
measured_target = "519858-162-T-J1-PDC complex spheroid viability"
unit_of_measurement = "%"
reported_measurement = 73.6

[[record]]
compound = "CC1COCCN1c1cc(-c2ccnn2C)c2ccnc(-c3ccn[nH]3)c2n1 (stereo unspecified) + CN(C)c1ccc(Nc2c3ccc(NC(=O)CCN4CCCC4)cc3nc3cc(NC(=O)CCN4CCCC4)ccc23)cc1"
measured_target = "519858-162-T-J1-PDC complex spheroid viability"
unit_of_measurement = "%"
reported_measurement = 73.5

[[record]]
compound = "C=CC(=O)N1CCN(c2nc(=O)n(-c3c(C)ccnc3C(C)C)c3nc(-c4c(O)cccc4F)c(F)cc23)C(C)C1 (stereo unspecified) + Cc1cnc(CNC(=O)c2c(=O)c3ccc(N4CCCN(C)CC4)nc3n3c2sc2ccccc23)cn1"
measured_target = "519858-162-T-J1-PDC complex spheroid viability"
unit_of_measurement = "%"
reported_measurement = 42.8

[[record]]
compound = "Cn1ncnc1[C@H]1c2n[nH]c(=O)c3cc(F)cc(c23)N[C@@H]1c1ccc(F)cc1 + Cc1cnc(CNC(=O)c2c(=O)c3ccc(N4CCCN(C)CC4)nc3n3c2sc2ccccc23)cn1"
measured_target = "519858-162-T-J1-PDC complex spheroid viability"
unit_of_measurement = "%"
reported_measurement = 72

[[record]]
compound = "CC(C)n1c(=O)n(C)c2cnc3cc(F)c(-c4ccc(OCCCN5CCCCC5)nc4)cc3c21 + Cc1cnc(CNC(=O)c2c(=O)c3ccc(N4CCCN(C)CC4)nc3n3c2sc2ccccc23)cn1"
measured_target = "519858-162-T-J1-PDC complex spheroid viability"
unit_of_measurement = "%"
reported_measurement = 46.7

[[record]]
compound = "CC1COCCN1c1cc(C2(S(C)(=N)=O)CC2)nc(-c2ccnc3[nH]ccc23)n1 (stereo unspecified) + Cc1[nH]c2ccc(F)cc2c1-c1nc2c3cccnc3c3ncccc3c2[nH]1"
measured_target = "519858-162-T-J1-PDC complex spheroid viability"
unit_of_measurement = "%"
reported_measurement = 55

[[record]]
compound = "CCc1c2c(nc3ccc(O)cc13)-c1cc3c(c(=O)n1C2)COC(=O)[C@]3(O)CC + Cc1[nH]c2ccc(F)cc2c1-c1nc2c3cccnc3c3ncccc3c2[nH]1"
measured_target = "519858-162-T-J1-PDC complex spheroid viability"
unit_of_measurement = "%"
reported_measurement = 76.2

[[record]]
compound = "COc1cc(C2c3cc4c(cc3C(OC3OC5COC(C)OC5C(O)C3O)C3COC(=O)C23)OCO4)cc(OC)c1O (stereo unspecified) + Cc1[nH]c2ccc(F)cc2c1-c1nc2c3cccnc3c3ncccc3c2[nH]1"
measured_target = "519858-162-T-J1-PDC complex spheroid viability"
unit_of_measurement = "%"
reported_measurement = 65.8

[[record]]
compound = "COc1ccc([C@@H](O)c2cc(-c3ncnc4cc(N5CCOCC5)ccc34)c(F)cc2Cl)nn1 + Cc1[nH]c2ccc(F)cc2c1-c1nc2c3cccnc3c3ncccc3c2[nH]1"
measured_target = "519858-162-T-J1-PDC complex spheroid viability"
unit_of_measurement = "%"
reported_measurement = 58.9

